Molecular target: Nitric oxide synthase 3 (Homo sapiens, UniProt P29474)
Sequence (P29474 whole entry): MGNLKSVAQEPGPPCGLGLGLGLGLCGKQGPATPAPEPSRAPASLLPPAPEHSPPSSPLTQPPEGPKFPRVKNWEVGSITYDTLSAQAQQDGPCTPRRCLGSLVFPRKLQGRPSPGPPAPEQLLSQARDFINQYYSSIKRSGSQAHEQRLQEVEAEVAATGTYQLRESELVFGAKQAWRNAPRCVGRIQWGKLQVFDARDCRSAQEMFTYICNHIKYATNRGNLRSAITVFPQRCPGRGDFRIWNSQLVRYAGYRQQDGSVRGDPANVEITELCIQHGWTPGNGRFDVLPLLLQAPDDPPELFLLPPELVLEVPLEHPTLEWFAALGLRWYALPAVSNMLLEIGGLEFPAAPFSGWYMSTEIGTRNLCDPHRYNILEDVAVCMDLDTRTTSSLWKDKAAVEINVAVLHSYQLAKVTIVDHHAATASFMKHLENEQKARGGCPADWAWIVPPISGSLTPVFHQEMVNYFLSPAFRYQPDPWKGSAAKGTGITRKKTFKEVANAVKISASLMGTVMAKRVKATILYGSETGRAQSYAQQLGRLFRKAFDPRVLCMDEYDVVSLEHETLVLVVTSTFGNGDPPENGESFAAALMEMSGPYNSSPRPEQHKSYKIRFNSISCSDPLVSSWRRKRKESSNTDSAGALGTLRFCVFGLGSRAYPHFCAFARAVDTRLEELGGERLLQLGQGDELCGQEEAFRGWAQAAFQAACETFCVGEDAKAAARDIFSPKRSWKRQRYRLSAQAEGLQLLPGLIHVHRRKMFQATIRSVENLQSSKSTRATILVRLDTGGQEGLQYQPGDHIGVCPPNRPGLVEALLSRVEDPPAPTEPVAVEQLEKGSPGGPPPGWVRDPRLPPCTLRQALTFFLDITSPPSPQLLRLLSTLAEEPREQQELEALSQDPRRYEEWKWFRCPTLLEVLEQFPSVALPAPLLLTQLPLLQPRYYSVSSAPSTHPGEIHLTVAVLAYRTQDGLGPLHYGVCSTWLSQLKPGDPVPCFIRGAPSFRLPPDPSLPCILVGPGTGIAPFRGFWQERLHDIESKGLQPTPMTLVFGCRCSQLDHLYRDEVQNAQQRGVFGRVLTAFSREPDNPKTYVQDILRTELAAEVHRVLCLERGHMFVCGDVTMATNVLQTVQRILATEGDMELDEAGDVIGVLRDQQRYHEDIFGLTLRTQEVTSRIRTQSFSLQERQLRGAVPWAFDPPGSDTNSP
Assay: Ability to inhibit conversion of [3H]L-Arg to [3H]L-citrulline catalyzed by endothelial NOS (e NOS) from HUVEC cells
pIC50 values by entry
Just the number, please; pIC50 means minus log10 of the concentration in mol/L.

Please review the following examples before continuing.
- compound: "NC1=NC(c2ccccc2)Cc2cccc(F)c21 (stereo not drawn)"
  tested system: "Nitric oxide synthase 3 (Homo sapiens, UniProt P29474)"
  readout value: 4.10
- compound: "NC1=NC(c2ccc(Cl)cc2)Cc2ccccc21 (stereo not drawn)"
  tested system: "Nitric oxide synthase 3 (Homo sapiens, UniProt P29474)"
  readout value: 4.07
- compound: "NC1=NC(c2ccccc2)Cc2ccccc21 (stereo not drawn)"
  tested system: "Nitric oxide synthase 3 (Homo sapiens, UniProt P29474)"
  readout value: 5.05
- compound: "NC1=NC(c2ccc(F)cc2)Cc2cccc(Cl)c21 (stereo not drawn)"
  tested system: "Nitric oxide synthase 3 (Homo sapiens, UniProt P29474)"
  readout value: 5.30
- compound: "CC(=N)NCCCC[C@H](N)C(=O)O [L-NIL]"
  tested system: "Nitric oxide synthase 3 (Homo sapiens, UniProt P29474)"
  readout value: 5.62

Ask: // returns reported pIC50 for input NC1=NC(c2cccc(F)c2)Cc2ccccc21 (stereo not drawn)
Reply: 5.05

Ask: Looking for the measured pIC50 of CC1Cc2ccccc2C(N)=N1 (stereo not drawn) , can you help?
Reply: 5.40

Ask: Quick check: pIC50 of NC1=NCCc2ccccc21 ?
Reply: 5.70
